# experimental_system: M-phase phosphoprotein 8 (Homo sapiens) (UniProt Q99549)
# Sequence (Q99549 whole entry, looked up): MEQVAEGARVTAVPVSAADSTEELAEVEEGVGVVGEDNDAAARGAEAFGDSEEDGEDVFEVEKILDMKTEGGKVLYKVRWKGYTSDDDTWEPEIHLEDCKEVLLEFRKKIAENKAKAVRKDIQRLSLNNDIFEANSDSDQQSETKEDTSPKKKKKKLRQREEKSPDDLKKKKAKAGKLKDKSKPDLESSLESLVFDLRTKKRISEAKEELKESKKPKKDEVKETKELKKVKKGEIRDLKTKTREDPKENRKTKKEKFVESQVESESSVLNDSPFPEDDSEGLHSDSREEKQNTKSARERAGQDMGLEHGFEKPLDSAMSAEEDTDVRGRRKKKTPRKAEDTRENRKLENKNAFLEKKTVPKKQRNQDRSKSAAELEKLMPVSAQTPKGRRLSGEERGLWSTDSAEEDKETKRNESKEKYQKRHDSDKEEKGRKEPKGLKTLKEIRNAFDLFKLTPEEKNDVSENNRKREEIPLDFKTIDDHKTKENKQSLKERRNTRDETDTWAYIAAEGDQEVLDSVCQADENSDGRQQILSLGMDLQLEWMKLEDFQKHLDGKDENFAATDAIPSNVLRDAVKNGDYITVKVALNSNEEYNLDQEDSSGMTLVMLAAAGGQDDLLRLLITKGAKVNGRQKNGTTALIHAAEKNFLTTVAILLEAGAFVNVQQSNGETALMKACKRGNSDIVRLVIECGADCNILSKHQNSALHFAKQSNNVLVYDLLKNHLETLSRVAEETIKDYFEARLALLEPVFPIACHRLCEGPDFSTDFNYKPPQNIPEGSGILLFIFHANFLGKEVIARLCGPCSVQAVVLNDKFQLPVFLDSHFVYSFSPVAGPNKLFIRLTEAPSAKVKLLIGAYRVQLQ
# test: qHTS Validation Assay for Inhibitors for MPP8 Chromodomain Interactions with Methylated Histone Tails (AID 488949); also: nearly all actives have a fitted effect of over 55% in size
# condition_summary: AlphaScreen MPP8 binding to H3K9me3 peptide; series mostly up to 57.1 µM
Records with an inconclusive call do not appear. The source made the active and inactive calls. Calls follow the shape of the dose curve; as a rule, active = well fitted inhibition curve with a large enough effect; inconclusive = small, poorly fitted or top-dose-only effect; inactive = no such curve, though single readings can be large or run the other way.
In this exercise, the only acceptable responses are active, inactive

### Prompt What call does the record list for CCCCCCCCCCCCCCCCCC(=O)NCC(COP(=O)([O-])OCC[N+](C)(C)C)OCC (stereo not given) ?
### Response inactive

### Prompt What did the test return for O=c1[nH]c2cc(C(F)(F)F)ccc2n1-c1cc(C(F)(F)F)ccc1O ?
### Response inactive

### Prompt Called result for C=CC(=O)c1ccc(CCCCCC)cc1
### Response inactive

### Prompt Fill in: this test's call for COc1cc(C(O)CO)ccc1OS(=O)(=O)O (stereo not given) is ___
### Response inactive

### Prompt What call does the record list for O=C(O)CC[C@@H](C(=O)O)N1C(=O)c2ccccc2C1=O ?
### Response inactive

### Prompt Please let me know the test result on file for COc1cc2nc(N3CCN(C(=O)OCc4ccccc4)C(C(=O)NC(C)(C)C)C3)nc(N)c2cc1OC (stereo not given) .
### Response inactive

### Prompt Test call, this compound: Oc1cc(O)cc(/C=C/c2ccc(O)c(O)c2)c1
### Response active

### Prompt I would be grateful if you could indicate the recorded call for CN(C)CCC(c1ccc(Cl)cc1)c1ccccn1 (stereo not given) .
### Response inactive

### Prompt Hi, sorry to bother you, what did the test record for CCCCCCCCCCCCCCCC(=O)NCC(COP(=O)([O-])OCC[N+](C)(C)C)OCC (stereo not given) ?
### Response inactive

### Prompt I'd appreciate the recorded outcome for COc1cccc(OC)c1OCCNCC1COc2ccccc2O1 (stereo not given) from this test.
### Response inactive

### Prompt I would be grateful if you could indicate the recorded call for O=Nc1ccc2oc(=O)ccc2c1 .
### Response active

### Prompt Fill in: this test's call for N.N.O=C(O)C1(C(=O)O)CCC1.[Pt] is ___
### Response active

### Prompt // outcome(item) with item = CCCCC#Cc1nc(NC)c2ncn([C@@H]3O[C@H](CO)[C@@H](O)[C@H]3O)c2n1
### Response inactive

### Prompt Assay result, entry C=C/C(C)=C/[C@@]1(C)SC(=O)C(C)=C1O — outcome?
### Response active

### Prompt Hi, sorry to bother you, what did the test record for O=C(Nc1ccccc1)c1cc([N+](=O)[O-])ccc1Cl ?
### Response inactive

###

# experimental_system: Atrial natriuretic peptide receptor 2 (Homo sapiens)
# test: Natriuretic polypeptide receptor (hNpr2) antagonism - Pilot subtype selectivity assay (AID 1347050); also: % is scaled to controls: 0 for no effect and ±100 for the full control effect
# condition_summary: NPR2-expressing cells, cGMP antagonist-mode read-out; series mostly up to 38.3 µM
Results filed as inconclusive are left out. Activity calls are given as the source filed them. Calls follow the shape of the full dose curve.
observed_property: outcome

CN1CCc2ccccc2Cc2[nH]c3ccccc3c2CC1 | inactive
CSc1nc(N)c2ncn([C@@H]3O[C@H](COP(=O)(O)OP(=O)(O)OP(=O)(O)O)[C@@H](O)[C@H]3O)c2n1 | inactive
CC(C)NC[C@@H](O)c1ccc(O)c(O)c1 | inactive

###

# test: qHTS assay for measurement of the activity of small molecule inhibitors on Zika virus induced Caspase-3 activity in human iPSC derived neural progenitor cells (hNPCs) (AID 1224857); also: nearly all actives have a fitted effect of over 65% in size
# condition_summary: hNPCs ZIKV-induced caspase-3/7, Caspase-Glo luminescence, 6 h; series mostly up to 45.7 µM
Inconclusive results are not listed. Calls of active or inactive are those of the source. Calls follow the shape of the dose curve; as a rule, active = well fitted inhibition curve with a large enough effect; inconclusive = small, poorly fitted or top-dose-only effect; inactive = no such curve, though single readings can be large or run the other way.
Returns: one label drawn from y (active), n (inactive)

### Prompt Recorded test outcome, item Oc1cc(O)cc(/C=C/c2ccc(O)c(O)c2)c1
### Response y

### Prompt Outcome logged for O=C(Nc1ccncc1)c1cc([N+](=O)[O-])ccc1Cl in this assay:
### Response n

### Prompt For Cc1ccc2c(n1)Oc1ccc(C(C)C(=O)OCC(=O)N(C)C)cc1C2 (centres undefined) , which call appears in the assay record?
### Response y

### Prompt Which outcome was assigned to OC[C@H]1O[C@@H](n2cnc3c(NC4CCCCC4)ncnc32)[C@H](O)[C@@H]1O in this test?
### Response n

###

# test: qHTS Assay for Lipid Storage Modulators (AID 1519)
# condition_summary: Drosophila S3 cells, BODIPY lipid droplet/cell ratio, laser cytometry; measured here: lipid channel max response; cells loaded with oleic acid
Records with an inconclusive call do not appear.
observed_property: max response (%)
Field: numeric (%). Do not append units.

### Prompt Fill blank: measured max response of the molecule COc1cc2nc(N3CCN(C(=O)OCc4ccccc4)C(C(=O)NC(C)(C)C)C3)nc(N)c2cc1OC (centres undefined) is ____.
### Response 39.8

### Prompt Please report the recorded max response for CCCCCCCCCCCCCCCCCCNC(=O)OCC(COP(=O)([O-])OCC[n+]1ccsc1)OC (centres undefined) .
### Response -15

### Prompt Dear colleague, I am looking for the recorded max response of the following molecule: CC1CN(S(=O)(=O)c2cccc3cnccc23)CCN1 (centres undefined)
### Response 7.5

### Prompt What measured max response goes with CN1CCc2cc(NC(=O)Nc3cccnc3)ccc21 ?
### Response 37.5

###

# test: qHTS of Trypanosoma Brucei Inhibitors: LOPAC Validation (AID 624147)
# condition_summary: purified enzyme assay, luminescence, 45 min; series mostly up to 57.5 µM
Results filed as inconclusive are left out. Calls of active or inactive are those of the source. The call rests on the fitted dose curve; in most records, active means well fitted inhibition curve with a large enough effect; inconclusive means small, poorly fitted or top-dose-only effect; inactive means flat fitted curve, though single readings scatter.
Allowed answers: 1 = active, 0 = inactive

### Prompt Test call, this compound: CCCCCCCCc1ccc(-c2ccc(C(=O)O)cc2)cc1
### Response 0

### Prompt What is the recorded call for this compound in the test? CC(N)C(=O)OC(C)(C)Cc1ccc(Cl)cc1 (stereo not drawn)
### Response 0

### Prompt Could you please tell me the result logged for NC(CCCP(=O)(O)O)C(=O)O (stereo not drawn) in this assay?
### Response 0

### Prompt # lookup: test call for N#C/C(=C\c1ccc(O)c(O)c1)C(=O)c1ccc(O)c(O)c1
### Response 0

### Prompt Can you look up the reported call for Cc1cc(NC(=O)Nc2ccc3c(ccn3C)c2)sn1 for me?
### Response 0

### Prompt I would be grateful if you could indicate the recorded call for CC(=O)/C=C1\C(=O)N(C)c2ccccc21 .
### Response 0

### Prompt Fill in: this test's call for Cn1ncc(S(=O)(=O)Cc2ccccc2)c(Br)c1=O is ___
### Response 0

### Prompt So what was the verdict on CCCn1c(=O)c2[nH]c(-c3ccc(OCC(=O)NCCN)cc3)nc2n(CCC)c1=O in this test?
### Response 0

### Prompt Fill in: this test's call for COc1cc(SC)ccc1C(=O)N1CCC(Cc2ccccc2)CC1 is ___
### Response 0

### Prompt // return assay outcome for Nc1nc(SCc2ccc([N+](=O)[O-])cc2)c2ncn([C@@H]3O[C@H](CO)[C@@H](O)[C@H]3O)c2n1
### Response 0

### Prompt Which outcome did this test record for the compound Cc1ccc(O)c(N=Nc2ccccc2)n1 ?
### Response 1

### Prompt Which result was noted for this compound in the test: CCCN(CC1CC1)c1nc(C)nc(Nc2c(Cl)cc(Cl)cc2Cl)c1Cl
### Response 0

### Prompt Please share the test call associated with CSc1ccccc1N1CCN(CCCCCC(=O)NC2CCCc3ccccc32)CC1 (stereo not drawn) .
### Response 0

### Prompt // outcome(item) with item = CC12C(=O)OC(=O)C1(C)C1CCC2O1 (stereo not drawn)
### Response 0

### Prompt What call does the record list for CCCCCC(O)c1cccc(OCc2ccc3ccccc3n2)c1 (stereo not drawn) ?
### Response 0

### Prompt Which outcome did this test record for the compound C[C@@H](NC(=O)/C(C#N)=C/c1ccc(O)c(O)c1)c1ccccc1 ?
### Response 0

### Prompt Identify the outcome logged in this assay for the compound shown: Oc1ccc(C2CNCc3sccc32)cc1O (stereo not drawn)
### Response 0

### Prompt Any idea what this test logged for CCCC1(C)C(C#N)(C#N)C1(C#N)C#N ?
### Response 0

###

# test: Cell Viability - LYMP2-005 (AID 967);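 also: cells exposed to compound for 24 h at 37 °C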
# condition_summary: LYMP2-005 lymphoblastoid cell viability; series mostly up to 92.2 µM
Records with an inconclusive call do not appear. Calls of active or inactive are those of the source. The call rests on the fitted dose curve; in most records, active means well fitted cell-killing curve with a large enough effect; inconclusive means small, poorly fitted or top-dose-only effect, or effect the other way; inactive means no such curve, though single readings can be large or run the other way.
Choose one outcome from this list and give only that: active, inactive

### Prompt Query: recorded result category for c1ccc2sc(SSc3nc4ccccc4s3)nc2c1 in this test
### Response inactive

### Prompt Check the results log: what was the call for N=C1N=C(N)c2cc3ccccc3cc21 ?
### Response active

### Prompt Short answer needed: outcome of this test for O=c1cc(-c2ccccc2)oc2ccccc12 ?
### Response inactive

### Prompt Called result for Nc1ccc(O)c([N+](=O)[O-])c1
### Response inactive

### Prompt What is the recorded call for this molecule in the test? CN(C)c1ccc(N=NS(=O)(=O)O)cc1
### Response inactive
